Tested on: Solanum nigrum
Test: Example B2 herbicidal action, post-emergence, pots in glasshouse, damage score 0-10
Assay type: in vivo
Conditions: application post-emergence, rate 1000 g/ha, evaluated after 13 days
Experimental: Seeds of a variety of test species were sown in standard soil in pots. […] After 13 days, the test was evaluated (10=total damage to plant; 0=no damage to plant).
quantity name: SOLNI damage score (10=total damage to plant; 0=no damage to plant)
// no unit string in output, number only

CSC(=O)OC1=C(c2c(Cl)cccc2C(F)(F)F)S(=O)(=O)N(CC(F)F)c2nccnc21 [Compound C129] : 10

## Input Entry COc1cccc(F)c1C1=C(OC(=O)C(C)C)c2nccnc2N(CC(F)F)S1(=O)=O [Compound C137] : reported SOLNI damage score (10=total damage to plant; 0=no damage to plant) = ?
## Output 9

## Input Same question for CC(C)(C)C(=O)OC1=C(c2c(F)ccc(-c3cccc(Cl)c3)c2Cl)S(=O)(=O)N(CC(F)F)c2nccnc21 [Compound C42] please.
## Output 3

## Input Try the compound CN1c2nccnc2C(O)=C(c2c(Cl)ccc(Cl)c2Cl)S1(=O)=O [Compound D47]
## Output 10

---

Tested on: Solanum nigrum
Assay: Example B2 herbicidal action, post-emergence, pots in glasshouse, damage score 0-10
Type: in vivo
Conditions: application post-emergence, rate 1000 g/ha, evaluated after 13 days
quantity name: SOLNI damage score (10=total damage to plant; 0=no damage to plant)
Form rule: numeric answer, no unit written next to it.

As a guide, the following entries are already answered.
O=S1(=O)C(c2ccc(C(F)(F)F)cc2C(F)(F)F)=C(O)c2nccnc2N1CC(F)F : 10
CCSC(=O)OC1=C(c2c(Cl)ccc(Cl)c2Cl)S(=O)(=O)N(C)c2nccnc21 : 9
CC(C)C(=O)OC1=C(c2c(C(F)(F)F)cccc2C(F)(F)F)S(=O)(=O)N(CC(F)F)c2nccnc21 : 9
CC(C)C(=O)OC1=C(c2c(C(F)(F)F)ccc(Cl)c2Cl)S(=O)(=O)N(CC(F)F)c2nccnc21 : 8
CC(C)C(=O)OC1=C(c2cc(C(F)(F)F)ccc2Br)S(=O)(=O)N(CC(F)F)c2nccnc21 : 10

## Input Return reported SOLNI damage score (10=total damage to plant; 0=no damage to plant); argument: "O=S1(=O)C(c2cc(C(F)(F)F)ccc2Br)=C(O)c2nccnc2N1CC(F)F"
## Output 10

## Input Could you do the same for "CCN1c2nccnc2C(OC(=O)C(C)(C)C)=C(c2cc(Cl)ccc2C(F)(F)F)S1(=O)=O" , please?
## Output 7

---

Tested on: Ipomea hederaceae
Assay: Example B2 herbicidal action, post-emergence, pots in glasshouse, damage score 0-10
Type: in vivo
Details: application post-emergence, rate 1000 g/ha, evaluated after 13 days
Procedure: Seeds of a variety of test species were sown in standard soil in pots. […] After 13 days, the test was evaluated (10=total damage to plant; 0=no damage to plant).
quantity name: IPOHE damage score (10=total damage to plant; 0=no damage to plant)
Reply: number alone, nothing else.

Illustrative cases are given below, each with its answer.
CCN1c2nccnc2C(OC(=O)C(C)(C)C)=C(c2cc(F)c(Cl)cc2Cl)S1(=O)=O [Compound C45] : 9
CCN1c2nccnc2C(O)=C(c2ccccc2SC(F)(F)F)S1(=O)=O [Compound D7] : 3
CCSC(=O)OC1=C(c2c(Cl)cccc2C(F)(F)F)S(=O)(=O)N(CC(F)F)c2nccnc21 [Compound C105] : 8
CSC(=O)OC1=C(c2c(Cl)cccc2C(F)(F)F)S(=O)(=O)N(CC(F)F)c2nccnc21 [Compound C129] : 9
O=C(OC1=C(c2c(Cl)ccc(Cl)c2Cl)S(=O)(=O)N(CC(F)F)c2nccnc21)Sc1ccccc1 [Compound C126] : 7
CC(C)(C)C(=O)OC1=C(c2cccc(C(F)(F)F)c2Cl)S(=O)(=O)N(CC(F)F)c2nccnc21 [Compound C74] : 7
CC(C)C(=O)OC1=C(c2cc(C(F)(F)F)ccc2Br)S(=O)(=O)N(CC(F)F)c2nccnc21 [Compound C59] : 10
Cc1ccc(C(F)(F)F)c(C2=C(O)c3nccnc3N(CC(F)F)S2(=O)=O)c1 [Compound D41] : 9

## Input Requested read-out: IPOHE damage score (10=total damage to plant; 0=no damage to plant). Entry: CCN1c2nccnc2C(O)=C(c2ccccc2OC(F)(F)F)S1(=O)=O [Compound D5]
## Output 9

## Input Let us now turn to CCN1c2nccnc2C(OC(=O)C(C)(C)C)=C(c2ccccc2C(F)(F)F)S1(=O)=O [Compound C64]
## Output 6

## Input Field entry: CSC(=O)OC1=C(c2ccc(Br)cc2C(F)(F)F)S(=O)(=O)N(CC(F)F)c2nccnc21 [Compound C133]
## Output 8

## Input CCN1c2nccnc2C(OC(=O)C(C)C)=C(c2cc(Cl)ccc2C(F)(F)F)S1(=O)=O [Compound C110] ?
## Output 8

## Input And then CCN1c2nccnc2C(OC(=O)C(C)C)=C(c2cc(I)ccc2Cl)S1(=O)=O [Compound C51] , what is it?
## Output 6

## Input Try this molecule too: CC(C)C(=O)OC1=C(c2c(F)cccc2C(F)(F)F)S(=O)(=O)N(CC(F)F)c2nccnc21 [Compound C77]
## Output 10

## Input Moving on to the next molecule: CCSC(=O)OC1=C(c2c(F)ccc(Cl)c2Cl)S(=O)(=O)N(CC(F)F)c2nccnc21 [Compound C32]
## Output 9

## Input Moving on to CCOC(=O)c1ccc(C(F)(F)F)nc1C1=C(OC(=O)SC)c2nccnc2N(CCC(F)F)S1(=O)=O [Compound C139]
## Output 1

---

Test system: Ipomea hederaceae
Assay: Example B2 herbicidal action, post-emergence, pots in glasshouse, damage score 0-10
Assay type: in vivo
Settings: application post-emergence, rate 1000 g/ha, evaluated after 13 days
Reported IPOHE damage score (10=total damage to plant; 0=no damage to plant) is given for each of the following molecules.
Number, no unit, nothing else.

CC(C)C(=O)OC1=C(c2ccccc2C(F)(F)F)S(=O)(=O)N(CCCl)c2nccnc21 : 1
CCN1c2nccnc2C(O)=C(c2cccc(C(F)(F)F)c2Cl)S1(=O)=O : 5
Cc1ccc(C(F)(F)F)c(C2=C(OC(=O)C(C)C)c3nccnc3N(CC(F)F)S2(=O)=O)c1 : 9
CC(C)C(=O)OC1=C(c2ccccc2Br)S(=O)(=O)N(CC(F)F)c2nccnc21 : 9
COc1cccc(F)c1C1=C(OC(=O)C(C)C)c2nccnc2N(CC(F)F)S1(=O)=O : 8
CCN1c2nccnc2C(O)=C(c2cc(C(F)(F)F)ccc2Cl)S1(=O)=O : 9

## Input Consider the molecule shown here: "CC(C)C(=O)OC1=C(c2cc(Cl)cc(C(F)(F)F)c2)S(=O)(=O)N(CC(F)F)c2nccnc21" What is its recorded IPOHE damage score (10=total damage to plant; 0=no damage to plant)?
## Output 0

## Input Please answer likewise for "CCOC(=O)OC1=C(c2cc(C)ccc2C(F)(F)F)S(=O)(=O)N(CC(F)F)c2nccnc21"
## Output 9

---

Entries annotated with measured IPOHE damage score (10=total damage to plant; 0=no damage to plant)
System: Ipomea hederaceae
Experiment: Example B2 herbicidal action, post-emergence, pots in glasshouse, damage score 0-10
Format: in vivo
Details: application post-emergence, rate 1000 g/ha, evaluated after 13 days
Returns: the value as a bare number; no unit string appended.

Please review the following examples before continuing.
C=C(C)CN1c2nccnc2C(OC(=O)C(C)(C)C)=C(c2cccc(Cl)c2Cl)S1(=O)=O [Compound C140] : 2
O=S1(=O)C(c2c(Br)cccc2Br)=C(O)c2nccnc2N1CC(F)F [Compound D28] : 8
O=S1(=O)C(c2cc(I)ccc2Cl)=C(O)c2nccnc2N1CC(F)F [Compound D29] : 7
COc1ccc(Cl)c(C2=C(O)c3nccnc3N(CC(F)F)S2(=O)=O)c1F [Compound D60] : 8
CC(C)(C)C(=O)OC1=C(c2cc(I)ccc2Cl)S(=O)(=O)N(CC(F)F)c2nccnc21 [Compound C55] : 8

## Input Look up IPOHE damage score (10=total damage to plant; 0=no damage to plant) for this compound: CC(C)C(=O)OC1=C(c2c(C(F)(F)F)cccc2C(F)(F)F)S(=O)(=O)N(CC(F)F)c2nccnc21 [Compound C79]
## Output 9

## Input Can you check O=S1(=O)C(c2cc(F)c(Cl)cc2Cl)=C(O)c2nccnc2N1CC(F)F [Compound D25] next?
## Output 9

---

System: Ipomea hederaceae
Experiment: Example B2 herbicidal action, post-emergence, pots in glasshouse, damage score 0-10
Format: in vivo
Details: application post-emergence, rate 1000 g/ha, evaluated after 13 days
quantity name: IPOHE damage score (10=total damage to plant; 0=no damage to plant)
Provide a numeric answer; units are not to be included.

C#CCN1c2nccnc2C(OC(=O)C(C)C)=C(c2c(Cl)ccc(Cl)c2C(F)(F)F)S1(=O)=O : 8

## Input Fill in the blank: the reported IPOHE damage score (10=total damage to plant; 0=no damage to plant) of CS(=O)(=O)OC1=C(c2cc(C(F)(F)F)ccc2Cl)S(=O)(=O)N(CC(F)F)c2nccnc21 [Compound C95] is ____.
## Output 10

## Input What would you report for "O=S1(=O)C(c2cccc(C(F)(F)F)c2Cl)=C(O)c2nccnc2N1CC(F)F" ?
## Output 10

## Input One more compound: "O=S1(=O)C(c2cc(C(F)(F)F)ccc2C(F)(F)F)=C(O)c2nccnc2N1CC(F)F"
## Output 10

## Input "CC(C)(C)C(=O)OC1=C(c2cc(C(F)(F)F)ccc2Br)S(=O)(=O)N(CC(F)F)c2nccnc21" ?
## Output 10

## Input Can you check "CCSC(=O)OC1=C(c2c(C(F)(F)F)ccc(Cl)c2Cl)S(=O)(=O)N(CC(F)F)c2nccnc21" next?
## Output 8

## Input Query "CCN1c2nccnc2C(O)=C(c2cccc(Cl)c2Cl)S1(=O)=O" next
## Output 6

## Input Please do the same for "CC(C)C(=O)OC1=C(c2ccc(Cl)cc2Cl)S(=O)(=O)N(CC(Cl)Cl)c2nccnc21" as well.
## Output 6

## Input "CCN1c2nccnc2C(O)=C(c2ccccc2[N+](=O)[O-])S1(=O)=O" , same question.
## Output 2
